- System: Fuc(a1-2)[Gal(a1-4)]Gal(b1-4)GlcNAc
- Experiment: glycan array binding signal (z-score within array); higher = stronger binding
- Measurement Setup: glycan notation: IUPAC condensed, linker removed
This is one part of a sample in which the strongest signals are shown more often than they occur.
Catalogue of binders with associated glycan array binding signal (z-score)
# respond with the number and nothing more

Example cases with answers are listed next.
Query block: GET /values?readout=glycan array binding signal (z-score)&item= Flo5 (Saccharomyces cerevisiae), P38894 (protein) MGSSHHHHHHSSGLVPRGSHMSGATEACLPAGQRKSGMNINFYQYSLKDSSTYSNAAYMAYGYASKTKLGSVGGQTDISIDYNIPCVSSSGTFPCPQEDSYGNWGCKGMGACSNSQGIAYWSTDLFGFYTTPTNVTLEMTGYFLPPQTGSYTFSFATVDDSAILSVGGSIAFECCAQEQPPITSTNFTINGIKPWDGSLPDNITGTVYMYAGYYYPLKVVYSNAVSWGTLPISVELPDGTTVSDNFEGYVYSFDDDLSQSNCTIPDPSIH
Result block: -0.23

Query block: Now give it for Langerin K313I (Homo sapiens), Q9UJ71 (protein) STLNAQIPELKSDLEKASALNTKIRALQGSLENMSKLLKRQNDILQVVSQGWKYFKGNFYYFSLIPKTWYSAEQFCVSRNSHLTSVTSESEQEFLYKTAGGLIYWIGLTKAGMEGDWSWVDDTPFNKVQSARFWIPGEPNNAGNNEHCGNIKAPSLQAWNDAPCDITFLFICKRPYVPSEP too.
Result block: -0.287

Query block: Now give it for UEA-I (Ulex europaeus), P22972 (protein) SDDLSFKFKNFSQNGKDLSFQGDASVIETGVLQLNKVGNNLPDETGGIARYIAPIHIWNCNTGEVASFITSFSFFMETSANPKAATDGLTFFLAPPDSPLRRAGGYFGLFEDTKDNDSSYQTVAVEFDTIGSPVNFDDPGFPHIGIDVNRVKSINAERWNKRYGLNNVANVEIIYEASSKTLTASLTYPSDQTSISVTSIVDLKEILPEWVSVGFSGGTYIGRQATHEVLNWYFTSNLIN too.
Result block: 5.33

Query block: Now give it for Tachylectin-2 (Tachypleus tridentatus), TAL2_TACTR (protein) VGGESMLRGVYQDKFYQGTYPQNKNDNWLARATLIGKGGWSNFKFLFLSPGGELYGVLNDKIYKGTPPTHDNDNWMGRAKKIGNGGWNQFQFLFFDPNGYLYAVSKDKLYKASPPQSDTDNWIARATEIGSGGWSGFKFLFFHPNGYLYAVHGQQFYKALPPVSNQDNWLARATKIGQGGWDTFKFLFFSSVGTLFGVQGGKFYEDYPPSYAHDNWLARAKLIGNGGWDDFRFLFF too.
Result block: -0.436

Next:
Query block: GET /values?readout=glycan array binding signal (z-score)&item= SLR2P2A3 (Tachypleus tridentatus), TAL2_TACTR (protein) MEKGTPPTHDSDNWMGRAKKIGNGGWNQFQFLFFDPNGYLYAVSKDKLYKASPPQSDTDNWIARATEIGSGGWSGSKFLFFHPNGYLYAVHGQRLYKALPPVSNQD
Result block: -0.148

Query block: Now give it for SalT (Orysata sativa) (protein) MTLVKIGLWGGNGGSAQDISVPPKKLLGVTIYSSDAIRSIAFNYIGVDGQEYAIGPWGGGEGTSTEIKLGSSEHIKEISGTHGPVYDLADIVTYLKIVTSANNTYEAGVPNGKEFSIPLQDSGHVVGFFGRSGTLIDAIGIYVHPILEQKLISEEDLNSAVDHHHHHH too.
Result block: -0.309
